- Test system: ABUTH (Velvetleaf)
- assay-procedure: Preemergence herbicidal evaluation
- Format: in vivo, Abutilon theophrasti
- cond: rate 0.0625 kg/ha; rated 4-5 weeks after treatment
measurement-label: Preemergence herbicidal rating ABUTH
Numbers only.

C=CCOC(=O)CC1SC(=Nc2cc(-n3c(=O)cc(C(F)(F)F)n(C)c3=O)c(F)cc2Cl)N(CC=C)C1=O (centres unmarked) [Compound 65]: 9.0
Cn1c(C(F)(F)F)cc(=O)n(-c2cc(N=C3SCC(=O)N3CC(=O)OCC3CCCCC3)c(Cl)cc2F)c1=O [Compound 123]: 9.0
CCOC(=O)CN1C(=O)C(Cc2ccccc2OCC(=O)O)S/C1=N/c1cc(-n2c(=O)cc(C(F)(F)F)n(C)c2=O)c(F)cc1Cl (centres unmarked) [Compound 113]: 1.0
Cn1c(C(F)(F)F)cc(=O)n(-c2cc(N=C3SCC(=O)N3Cc3ccccc3)c(Cl)cc2F)c1=O [Compound 26]: 0.0

Note: attention shifts to another entry.
Lab note: measured Preemergence herbicidal rating ABUTH of C#CCOC(=O)CN1C(=O)CSC1=Nc1cc(-n2c(=O)cc(C(F)(F)F)n(C)c2=O)c(F)cc1Cl [Compound 115] was 0.0

###

- System: CYPIR (Rice Flatsedge)
- assay-procedure: Postemergence weed control under flooded paddy conditions
- Type: in vivo, Cyperus iria
- cond: rate 0.1250 kg/ha, postemergence weeds, 3-4 weeks after treatment
measurement-label: Herbicidal rating CYPIR
Answers are plain numbers.

Past entries and their recorded results:
CCOC(=O)CN1C(=O)C(CC(N)=O)S/C1=N/c1cc(-n2c(=O)cc(C(F)(F)F)n(C)c2=O)c(F)cc1Cl (stereo not shown): 0.0
COC(=O)CCCN1C(=O)CSC1=Nc1cc(-n2c(=O)cc(C(F)(F)F)n(C)c2=O)c(F)cc1Cl: 0.0
CCOC(=O)CN1C(=O)C2(CC2)SC1=Nc1cc(-n2c(=O)cc(C(F)(F)F)n(C)c2=O)c(F)cc1Cl: 6.0

Turning to the following molecule.
The value of Herbicidal rating CYPIR measured for the molecule CCOC(=O)CN1C(=O)C(CC(=O)OC(C)C)SC1=Nc1cc(-n2c(=O)cc(C(F)(F)F)n(C)c2=O)c(F)cc1Cl (stereo not shown) turned out to be 9.0

###

- System: AMBEL (Ragweed, Common)
- assay-procedure: Postemergence herbicidal evaluation
- Format: in vivo, Ambrosia artemisifolia
- cond: postemergence, rate 0.1250 kg/ha
measurement-label: AMBEL herbicidal rating

Please review the following examples before continuing.
CN1C(=O)CS/C1=N/c1cc(-n2c(=O)cc(C(F)(F)F)n(C)c2=O)c(F)cc1Cl [Compound 7]: 9.0
CC(C)OC(=O)CC1SC(=Nc2cc(-n3c(=O)cc(C(F)(F)F)n(C)c3=O)c(F)cc2Cl)N(C)C1=O (stereo not shown) [Compound 89]: 9.0
C=CCN1C(=O)C(CC(=O)OCCF)SC1=Nc1cc(-n2c(=O)cc(C(F)(F)F)n(C)c2=O)c(F)cc1Cl (stereo not shown) [Compound 86]: 9.0

Continue with the next compound.
The compound identified as CCOC(=O)CN1C(=O)C(CC(=O)NO)S/C1=N/c1cc(-n2c(=O)cc(C(F)(F)F)n(C)c2=O)c(F)cc1Cl (stereo not shown) [Compound 98] registered its AMBEL herbicidal rating at 9.0

###

- Tested on: CYPIR (Rice Flatsedge)
- assay-procedure: Preemergence weed control under flooded paddy conditions
- Format: in vivo, Cyperus iria
- cond: 0.0313 kg/ha, rated 3-4 weeks after treatment
- Procedure: Results of herbicide evaluation are expressed on a rating scale (0-9). The scale is based upon a visual observation of plant stand, vigor, malformation, size, chlorosis and overall plant appearance as compared with a control. Preemergence herbicidal activity under flooded paddy conditions is determined as follows: plant seeds or propagating organs are planted in the top 0.5 cm of silt loam soil in 32 oz. plastic containers with a diameter of 10.5 cm and no drainage holes. […]
measurement-label: CYPIR herbicidal effect rating

Solved cases below.
C=CCN1C(=O)C(CC(=O)OC)SC1=Nc1cc(-n2c(=O)cc(C(F)(F)F)n(C)c2=O)c(F)cc1Cl (centres unmarked): 0.0
C#CCOC(=O)CC1SC(=Nc2cc(-n3c(=O)cc(C(F)(F)F)n(C)c3=O)c(F)cc2Cl)N(CC=C)C1=O (centres unmarked): 5.0
C#CCOC(=O)CC1SC(=Nc2cc(-n3c(=O)cc(C(F)(F)F)n(C)c3=O)c(F)cc2Cl)N(C)C1=O (centres unmarked): 0.0
CN1C(=O)C(CC(=O)Nc2ccccc2)SC1=Nc1cc(-n2c(=O)cc(C(F)(F)F)n(C)c2=O)c(F)cc1Cl (centres unmarked): 0.0
CN1C(=O)C(CC(=O)O)SC1=Nc1cc(-n2c(=O)cc(C(F)(F)F)n(C)c2=O)c(F)cc1Cl (centres unmarked): 2.0
CC(C)OC(=O)CC1SC(=Nc2cc(-n3c(=O)cc(C(F)(F)F)n(C)c3=O)c(F)cc2Cl)N(C)C1=O (centres unmarked): 0.0
CCOC(=O)[C@H](Cc1ccccc1)N1C(=O)CSC1=Nc1cc(-n2c(=O)cc(C(F)(F)F)n(C)c2=O)c(F)cc1Cl: 5.0
C#CCOC(=O)CN1C(=O)CSC1=Nc1cc(-n2c(=O)cc(C(F)(F)F)n(C)c2=O)c(F)cc1Cl: 5.0
CCOC(=O)CN1C(=O)C(CC(=O)Nc2ccccc2)SC1=Nc1cc(-n2c(=O)cc(C(F)(F)F)n(C)c2=O)c(F)cc1Cl (centres unmarked): 0.0
CCOC(=O)CN1C(=O)C(CC(=O)NOC)SC1=Nc1cc(-n2c(=O)cc(C(F)(F)F)n(C)c2=O)c(F)cc1Cl (centres unmarked): 5.0

// field: CYPIR herbicidal effect rating; key: CN1C(=O)C(CC(=O)OCCF)SC1=Nc1cc(-n2c(=O)cc(C(F)(F)F)n(C)c2=O)c(F)cc1Cl (centres unmarked) ; value = 0.0

###

Assignment: determine reported ORYSAT preemergence herbicidal rating for the given compounds.
- Test system: ORYSAT (Rice, Tebonnet)
- assay-procedure: Preemergence herbicidal evaluation
- Type: in vivo, Oryza sativa, (L.) Tebonnet
- cond: rate 0.1250 kg/ha; rated 4-5 weeks after treatment
Numbers only.

CCOC(=O)/C=C1/S/C(=N/c2cc(-n3c(=O)cc(C(F)(F)F)n(C)c3=O)c(F)cc2Cl)N(CC(=O)OCC)C1=O [Compound 14]: 0.5

List reported ORYSAT preemergence herbicidal rating for each of these compounds:
1. CCOC(=O)CN1C(=O)CO/C1=N/c1cc(-n2c(=O)cc(C(F)(F)F)n(C)c2=O)c(F)cc1Cl [Compound 22]
2. CN(C)N1C(=O)CSC1=Nc1cc(-n2c(=O)cc(C(F)(F)F)n(C)c2=O)c(F)cc1Cl [Compound 23]
3. C=CCN1C(=O)CSC1=Nc1cc(N2C(=O)C3=C(CCCC3)C2=O)c(F)cc1Cl [Compound 2]

Reply:
1: 5.0; 2: 1.0; 3: 2.0

Record summary for CCC1SC(=Nc2cc(N3C(=O)C4=C(CCCC4)C3=O)c(F)cc2Cl)N(C)C1=O (centres unmarked) [Compound 6] : reported ORYSAT preemergence herbicidal rating = 0.0

###

- System: ZEAMX (Corn, Field)
- assay-procedure: Preemergence herbicidal evaluation
- Type: in vivo, Zea mays
- cond: preemergence, 0.2500 kg/ha, rated 4-5 weeks after treatment, 0-9 scale
Exercise: state measured ZEAMX rating for each of the molecules provided.
Give bare numbers.

Look over these answered cases.
C=CCN1C(=O)C(CC(=O)NC)SC1=Nc1cc(-n2c(=O)cc(C(F)(F)F)n(C)c2=O)c(F)cc1Cl (centres unmarked): 8.0
CCOC(=O)CN1C(=O)C(CC(=O)NO)S/C1=N/c1cc(-n2c(=O)cc(C(F)(F)F)n(C)c2=O)c(F)cc1Cl (centres unmarked): 4.0
C=CCN1C(=O)C(CC(=O)NS(=O)(=O)CC)SC1=Nc1cc(-n2c(=O)cc(C(F)(F)F)n(C)c2=O)c(F)cc1Cl (centres unmarked): 0.0
CN1C(=O)C(CC(=O)Nc2ccccc2)SC1=Nc1cc(-n2c(=O)cc(C(F)(F)F)n(C)c2=O)c(F)cc1Cl (centres unmarked): 0.0

Moving on to the next molecule.
Looking up CCOC(=O)CN1C(=O)C(CC(=O)NOC)SC1=Nc1cc(-n2c(=O)cc(C(F)(F)F)n(C)c2=O)c(F)cc1Cl (centres unmarked) , I found its ZEAMX rating recorded as 0.0

###

Exercise: for every item that follows, state its recorded Postemergence herbicidal rating CHEAL.
- System: CHEAL (Lambsquarters, Common)
- assay-procedure: Postemergence herbicidal evaluation
- Assay type: in vivo, Chenopodium album
- cond: Rate 0.0158 kg/ha
Answers are plain numbers.

The examples below pair each entry with its known result.
CCOC(=O)CN1C(=O)C(CC(=O)O)SC1=Nc1cc(-n2c(=O)cc(C(F)(F)F)n(C)c2=O)c(Cl)cc1Cl (centres unmarked): 9.0
CN1C(=O)C(CC(=O)O)SC1=Nc1cc(-n2c(=O)cc(C(F)(F)F)n(C)c2=O)c(F)cc1Cl (centres unmarked): 9.0
C=CCN1C(=O)C(CC(=O)OC)SC1=Nc1cc(-n2c(=O)cc(C(F)(F)F)n(C)c2=O)c(F)cc1Cl (centres unmarked): 9.0

Answer for every listed entry: what is its Postemergence herbicidal rating CHEAL? The entries follow.
1. Cn1c(C(F)(F)F)cc(=O)n(-c2cc(/N=C3/SC(CC(=O)O)C(=O)N3CC(=O)O)c(Cl)cc2F)c1=O (centres unmarked)
2. CCOC(=O)CN1C(=O)C(CC(=O)OC)S/C1=N/c1cc(-n2c(=O)cc(C(F)(F)F)n(C)c2=O)c(F)cc1Cl (centres unmarked)

Reply:
[0.0, 9.0]
